# TGT: SOS1/KRAS G12C protein binding (Homo sapiens, UniProt Q07889)
# Construct: His-SOS1 (aa 564-1049) protein; 20200707 (KRAS G12C)
# Sequence (Q07889 564-1049): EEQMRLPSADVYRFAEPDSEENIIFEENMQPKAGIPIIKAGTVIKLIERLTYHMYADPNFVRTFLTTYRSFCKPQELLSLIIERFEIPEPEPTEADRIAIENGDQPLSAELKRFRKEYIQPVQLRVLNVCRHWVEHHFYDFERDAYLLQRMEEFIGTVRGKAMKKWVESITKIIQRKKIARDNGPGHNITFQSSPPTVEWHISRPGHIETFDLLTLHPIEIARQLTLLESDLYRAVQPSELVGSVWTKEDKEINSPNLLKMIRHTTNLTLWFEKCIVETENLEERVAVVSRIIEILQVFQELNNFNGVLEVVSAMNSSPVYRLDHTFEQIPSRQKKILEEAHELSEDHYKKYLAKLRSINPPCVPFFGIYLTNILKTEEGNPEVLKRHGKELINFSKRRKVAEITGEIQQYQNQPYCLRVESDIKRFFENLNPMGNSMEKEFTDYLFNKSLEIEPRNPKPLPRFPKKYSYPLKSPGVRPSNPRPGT
# EXPERIMENT: Inhibition of SOS1/KRAS G12C protein binding (665 nm/615 nm ratio)
# RUN PARAMETERS: 15 nM KRAS G12C (aa 1-169), 2.5 nM His-SOS1 (aa 564-1049); nonlinear regression
pIC50: −log10 of the molar value.
# label = TRUE if pIC50 >= 8 else FALSE

// query Is pIC50 at least 8? Consider CCC1(n2cc3c(N[C@H](C)c4cccc(C(F)F)c4F)nc(C)nc3c(OC)c2=O)CC1
// result FALSE

// query Is pIC50 at least 8? Consider COc1c(=O)n(C2(CO)CC2)cc2c(N[C@H](C)c3cccc(C(F)F)c3F)nc(C)nc12
// result FALSE

// query Is pIC50 at least 8? Consider COc1c(=O)n(C2(C(F)(F)F)CC2)cc2c(N[C@H](C)c3cccc(C(C)(F)F)c3F)nc(C)nc12
// result TRUE

// query Is pIC50 at least 8? Consider COc1c(=O)n(C2(C(F)F)CC2)cc2c(N[C@H](C)c3cccc(C(F)F)c3C)nc(C)nc12
// result TRUE

// query Is pIC50 at least 8? Consider [2H]C([2H])([2H])Oc1c(=O)n(C2(C(F)(F)F)CC2)cc2c(N[C@H](C)c3cccc(C(F)F)c3F)nc(C)nc12
// result FALSE

====

I'd be grateful if you could share measured log10(IC50) for these entries.
# System: ERK phosphorylation in DLD-1 cells
# EXPERIMENT: In-cell Western blot assay for ERK phosphorylation in DLD-1 cells
# Format: cell-based
# RUN PARAMETERS: Homo sapiens, p-ERK signal corrected using DMSO and BI-3406, four-parameter fit
# Procedure: Efficacy Example 1: In-cell Western Blot Assay for ERK Phosphorylation in DLD-1 Cells DLD-1 cells (ATCC, CCL-221) were thawed and cultured in a culture medium containing RPMI1640 (Gibco, A10491-01), 10% fetal bovine serum (FBS) (Transgene, FS201-02) and 1% antibiotic P/S (Gibco, 15140-122) for 3 days until the cell viability was good. […] The IC50 values of the compounds were calculated using a four-parameter fitting algorithm, specifically as follows: […]
Response schema: value (number) is log10 of IC50 in units of µM.

// query I would be grateful if you could share the reported log10(IC50) for [2H]C([2H])([2H])Oc1c(=O)n(C2(C(F)F)CC2)cc2c(N[C@H](C)c3cccc(C(F)F)c3F)nc(C)nc12 [SZ-022295] .
// result -0.59

// query I would be grateful if you could share the reported log10(IC50) for COc1c(=O)n(C2(C(F)(F)F)CC2)cc2c(N[C@H](C)c3cccc(C(F)F)c3F)nc(C)nc12 [SZ-022325] .
// result -0.67

// query I would be grateful if you could share the reported log10(IC50) for [2H]C([2H])([2H])Oc1c(=O)n(C2(C(F)(F)F)CC2)cc2c(N[C@H](C)c3cccc(C(F)F)c3F)nc(C)nc12 [SZ-022354] .
// result -0.86

// query I would be grateful if you could share the reported log10(IC50) for COc1c(=O)n(C2(C(F)(F)F)CC2)cc2c(N[C@H](C)c3cccc(C(C)(F)F)c3F)nc(C)nc12 [SZ-022358] .
// result -0.65

// query I would be grateful if you could share the reported log10(IC50) for COc1c(=O)n(C2(C)CCOC2)cc2c(N[C@H](C)c3cccc(C(F)F)c3F)nc(C)nc12 (stereo partly drawn) [SZ-022328] .
// result -0.51

// query I would be grateful if you could share the reported log10(IC50) for CCOc1c(=O)n(C2(CF)CC2)cc2c(N[C@H](C)c3cccc(C(F)(F)F)c3C)nc(C)nc12 [SZ-022342] .
// result -1.24

// query I would be grateful if you could share the reported log10(IC50) for CCOc1c(=O)n(C2(C(F)(F)F)CC2)cc2c(N[C@H](C)c3cccc(C(F)(F)F)c3C)nc(C)nc12 [SZ-022340] .
// result -0.44

// query I would be grateful if you could share the reported log10(IC50) for [2H]C([2H])([2H])Oc1c(=O)n(C2(C(F)F)CC2)cc2c(N[C@H](C)c3cccc(C(C)(F)F)c3F)nc(C)nc12 [SZ-022355] .
// result -0.95

// query I would be grateful if you could share the reported log10(IC50) for COc1c(=O)n(C2(C)CC2)cc2c(N[C@H](C)c3cccc(C(F)F)c3F)nc(C)nc12 [SZ-022300] .
// result -0.39

// query I would be grateful if you could share the reported log10(IC50) for COc1c(=O)n(C23CC(C2)C3)cc2c(N[C@H](C)c3cccc(C(F)F)c3F)nc(C)nc12 [SZ-022345] .
// result -0.05

// query I would be grateful if you could share the reported log10(IC50) for COc1c(=O)n(C2(C(F)F)CC2)cc2c(N[C@H](C)c3cccc4c3OCC4(F)F)nc(C)nc12 [SZ-022330] .
// result -0.93

// query I would be grateful if you could share the reported log10(IC50) for CCOc1c(=O)n(C2(C)CC2)cc2c(N[C@H](C)c3cccc(C(F)F)c3F)nc(C)nc12 [SZ-022364] .
// result -0.52

// query I would be grateful if you could share the reported log10(IC50) for Cc1nc(N[C@H](C)c2cccc(C(F)F)c2F)c2cn(C3(C(F)F)CC3)c(=O)c(O[C@H]3CCOC3)c2n1 [SZ-022351] .
// result -0.26

// query I would be grateful if you could share the reported log10(IC50) for CCOc1c(=O)n(C2(CF)CC2)cc2c(N[C@H](C)c3cccc(C(F)F)c3F)nc(C)nc12 [SZ-022363] .
// result -0.77

// query I would be grateful if you could share the reported log10(IC50) for COc1c(=O)n(C2(CF)CC2)cc2c(N[C@H](C)c3cccc(C(C)(F)F)c3F)nc(C)nc12 [SZ-022357] .
// result -0.78

====

# TGT: SOS1/KRAS G12C protein binding (Homo sapiens, UniProt Q07889)
# Construct: His-SOS1 (aa 564-1049) protein; 20200707 (KRAS G12C)
# Sequence (Q07889 564-1049): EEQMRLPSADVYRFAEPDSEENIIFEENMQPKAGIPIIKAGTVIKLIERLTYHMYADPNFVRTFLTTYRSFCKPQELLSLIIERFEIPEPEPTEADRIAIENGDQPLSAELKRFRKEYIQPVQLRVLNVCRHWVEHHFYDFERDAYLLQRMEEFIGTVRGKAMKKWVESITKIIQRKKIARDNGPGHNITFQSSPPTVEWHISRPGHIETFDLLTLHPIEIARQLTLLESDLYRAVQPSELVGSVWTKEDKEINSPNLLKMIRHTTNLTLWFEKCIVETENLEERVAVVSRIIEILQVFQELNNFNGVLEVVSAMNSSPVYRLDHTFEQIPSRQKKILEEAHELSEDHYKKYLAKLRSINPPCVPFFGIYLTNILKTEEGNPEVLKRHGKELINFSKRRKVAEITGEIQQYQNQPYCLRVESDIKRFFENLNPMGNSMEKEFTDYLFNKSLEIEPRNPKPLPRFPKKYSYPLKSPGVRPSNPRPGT
# EXPERIMENT: Inhibition of SOS1/KRAS G12C protein binding (665 nm/615 nm ratio)
# RUN PARAMETERS: 15 nM KRAS G12C (aa 1-169), 2.5 nM His-SOS1 (aa 564-1049); nonlinear regression
# Method: Efficacy Example 2: Evaluation of Inhibition of SOS1/KRAS G12C Protein Binding A test compound was dissolved in 100% DMSO to give a solution at a concentration of 10 mM. […] The 665 nm/615 nm optical density ratio was read using an Envision multifunctional microplate reader (Perkin Elmer, Envision 2104). […] The IC50 (half maximal inhibitory concentration) values of the compounds were calculated using the following non-linear fitting equation: […]
MEASURE NAME: pIC50
Scale: negative log10 of molar concentration, which is what pIC50 denotes.

// query Report pIC50 for COc1c(=O)n(C2(C(F)F)CC2)cc2c(N[C@H](C)c3cccc(C#N)c3C)nc(C)nc12 tested on SOS1/KRAS G12C protein binding (Homo sapiens, UniProt Q07889).
// result 7.91

// query Report pIC50 for CCOc1c(=O)n(C2(C)CC2)cc2c(N[C@H](C)c3cccc(C(C)(F)F)c3F)nc(C)nc12 tested on SOS1/KRAS G12C protein binding (Homo sapiens, UniProt Q07889).
// result 8.07

// query Report pIC50 for COc1c(=O)n(C2(C)CC2)cc2c(N[C@H](C)c3cccc(C(C)(F)F)c3F)nc(C)nc12 tested on SOS1/KRAS G12C protein binding (Homo sapiens, UniProt Q07889).
// result 8.36

// query Report pIC50 for COc1c(=O)n(C2(C(F)F)CC2)cc2c(N[C@H](C)c3cccc(C(F)F)c3F)nc(C)nc12 tested on SOS1/KRAS G12C protein binding (Homo sapiens, UniProt Q07889).
// result 7.75

// query Report pIC50 for CCOc1c(=O)n(C2(C(F)(F)F)CC2)cc2c(N[C@H](C)c3cccc(C(F)F)c3F)nc(C)nc12 tested on SOS1/KRAS G12C protein binding (Homo sapiens, UniProt Q07889).
// result 7.91

// query Report pIC50 for Cc1nc(N[C@H](C)c2cccc(C(F)F)c2F)c2cn(C3(C(F)F)CC3)c(=O)c(S(C)(=O)=O)c2n1 tested on SOS1/KRAS G12C protein binding (Homo sapiens, UniProt Q07889).
// result 7.59

// query Report pIC50 for [2H]C([2H])([2H])Oc1c(=O)n(C2(C(F)F)CC2)cc2c(N[C@H](C)c3cccc(C#N)c3C)nc(C)nc12 tested on SOS1/KRAS G12C protein binding (Homo sapiens, UniProt Q07889).
// result 8.05

// query Report pIC50 for COc1c(=O)n(C2(C#N)CC2)cc2c(N[C@H](C)c3cccc(C(F)F)c3F)nc(C)nc12 tested on SOS1/KRAS G12C protein binding (Homo sapiens, UniProt Q07889).
// result 7.63

// query Report pIC50 for COc1c(=O)n(C2(C(F)(F)F)CC2)cc2c(N[C@H](C)c3cccc(C#N)c3C)nc(C)nc12 tested on SOS1/KRAS G12C protein binding (Homo sapiens, UniProt Q07889).
// result 7.73

// query Report pIC50 for COc1c(=O)n(C2(C(F)F)CC2)cc2c(N[C@H](C)c3cccc(C(C)(F)F)c3F)nc(C)nc12 tested on SOS1/KRAS G12C protein binding (Homo sapiens, UniProt Q07889).
// result 8.01

// query Report pIC50 for Cc1nc(N[C@H](C)c2cccc(C(F)F)c2F)c2cn(C3(C(F)F)CC3)c(=O)c(OC(C)C)c2n1 tested on SOS1/KRAS G12C protein binding (Homo sapiens, UniProt Q07889).
// result 7.36

// query Report pIC50 for COc1c(=O)n(C2(C)CC2)cc2c(N[C@H](C)c3cccc(C(F)F)c3F)nc(C)nc12 tested on SOS1/KRAS G12C protein binding (Homo sapiens, UniProt Q07889).
// result 7.92

// query Report pIC50 for [2H]C([2H])([2H])Oc1c(=O)n(C2(C(F)(F)F)CC2)cc2c(N[C@H](C)c3cccc(C#N)c3C)nc(C)nc12 tested on SOS1/KRAS G12C protein binding (Homo sapiens, UniProt Q07889).
// result 7.81

// query Report pIC50 for CCOc1c(=O)n(C2(C)CC2)cc2c(N[C@H](C)c3cccc(C(F)(F)F)c3C)nc(C)nc12 tested on SOS1/KRAS G12C protein binding (Homo sapiens, UniProt Q07889).
// result 8.11

// query Report pIC50 for CCOc1c(=O)n(C2(C(F)F)CC2)cc2c(N[C@H](C)c3cccc(C(C)(F)F)c3F)nc(C)nc12 tested on SOS1/KRAS G12C protein binding (Homo sapiens, UniProt Q07889).
// result 7.92
